Reference source for all entries: ChEMBL document CHEMBL1201862

Molecular target: Peroxisome proliferator-activated receptor gamma/Nuclear receptor coactivator 2 (Homo sapiens);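 note: agonist potency for raising coactivator recruitment to the receptor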
Sequence (P37231 whole entry): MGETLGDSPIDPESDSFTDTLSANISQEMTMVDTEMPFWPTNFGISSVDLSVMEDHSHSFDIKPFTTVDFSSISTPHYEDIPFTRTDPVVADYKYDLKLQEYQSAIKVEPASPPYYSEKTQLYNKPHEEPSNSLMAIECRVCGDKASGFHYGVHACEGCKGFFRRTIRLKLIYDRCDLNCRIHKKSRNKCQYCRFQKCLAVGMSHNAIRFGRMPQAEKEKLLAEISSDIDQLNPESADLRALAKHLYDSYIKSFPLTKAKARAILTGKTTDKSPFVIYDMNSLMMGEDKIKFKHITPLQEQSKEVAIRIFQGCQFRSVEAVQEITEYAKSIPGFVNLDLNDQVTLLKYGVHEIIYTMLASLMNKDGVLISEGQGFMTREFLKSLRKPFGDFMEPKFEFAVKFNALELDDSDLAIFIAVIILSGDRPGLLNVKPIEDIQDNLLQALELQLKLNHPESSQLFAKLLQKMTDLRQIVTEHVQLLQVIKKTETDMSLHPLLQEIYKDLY
Sequence (Q15596 whole entry, further chain): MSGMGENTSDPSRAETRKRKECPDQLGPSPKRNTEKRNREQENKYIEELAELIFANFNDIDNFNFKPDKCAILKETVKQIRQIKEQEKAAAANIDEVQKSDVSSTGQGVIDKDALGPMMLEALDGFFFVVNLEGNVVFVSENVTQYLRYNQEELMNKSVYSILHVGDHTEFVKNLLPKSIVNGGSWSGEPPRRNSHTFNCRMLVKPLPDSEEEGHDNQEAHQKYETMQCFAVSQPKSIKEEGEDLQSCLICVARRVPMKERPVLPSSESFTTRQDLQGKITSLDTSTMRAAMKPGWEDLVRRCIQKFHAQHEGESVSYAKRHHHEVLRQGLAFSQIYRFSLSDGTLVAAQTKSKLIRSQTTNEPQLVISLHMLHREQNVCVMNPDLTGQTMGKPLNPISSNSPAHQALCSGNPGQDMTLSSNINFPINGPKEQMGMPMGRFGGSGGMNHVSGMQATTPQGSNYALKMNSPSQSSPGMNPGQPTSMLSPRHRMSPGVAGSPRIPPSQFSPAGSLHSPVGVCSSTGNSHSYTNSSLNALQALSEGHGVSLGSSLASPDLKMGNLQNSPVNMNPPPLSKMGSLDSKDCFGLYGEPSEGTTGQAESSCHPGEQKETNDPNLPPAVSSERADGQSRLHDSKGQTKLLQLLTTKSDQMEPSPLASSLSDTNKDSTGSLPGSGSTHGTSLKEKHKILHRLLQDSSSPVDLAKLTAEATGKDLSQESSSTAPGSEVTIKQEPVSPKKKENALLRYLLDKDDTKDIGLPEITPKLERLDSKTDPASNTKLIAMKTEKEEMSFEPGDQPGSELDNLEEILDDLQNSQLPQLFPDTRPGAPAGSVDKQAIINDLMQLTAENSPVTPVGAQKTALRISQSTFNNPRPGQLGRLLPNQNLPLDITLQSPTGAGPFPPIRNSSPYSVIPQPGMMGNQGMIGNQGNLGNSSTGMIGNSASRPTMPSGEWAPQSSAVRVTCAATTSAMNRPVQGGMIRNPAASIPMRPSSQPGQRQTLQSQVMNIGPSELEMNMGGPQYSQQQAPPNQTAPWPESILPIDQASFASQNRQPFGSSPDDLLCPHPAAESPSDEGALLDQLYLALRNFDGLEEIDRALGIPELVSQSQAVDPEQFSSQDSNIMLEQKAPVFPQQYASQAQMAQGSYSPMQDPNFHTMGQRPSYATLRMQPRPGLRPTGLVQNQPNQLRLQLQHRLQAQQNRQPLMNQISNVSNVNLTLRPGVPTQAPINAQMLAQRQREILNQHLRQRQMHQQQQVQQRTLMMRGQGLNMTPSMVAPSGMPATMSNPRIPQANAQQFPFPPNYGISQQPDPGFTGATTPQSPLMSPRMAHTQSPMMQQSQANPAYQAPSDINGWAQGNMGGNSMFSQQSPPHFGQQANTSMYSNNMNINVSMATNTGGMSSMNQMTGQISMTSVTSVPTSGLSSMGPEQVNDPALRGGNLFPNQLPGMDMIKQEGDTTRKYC
Format: functional
Each entry below lists one item and its recorded EC50 value.

> print(dat)
                               smiles.entry                  result
1  Cc1n[nH]c(C)c1S(=O)(=O)N(CC(=O)Nc1ccc2c(c1)OCCO2)c1ccc(C(C)C)cc1  > 79.4 µM (not active)
2  CCN(CC)S(=O)(=O)c1cccc(NC(=O)COC(=O)c2nnc(O)c3ccccc23)c1  > 79.4 µM (not active)
3  COC(=O)c1ccc(C(=O)OC)c(NC(=O)C(C)(C)C)c1  > 79.4 µM (not active)
4     CCCCOc1ccc(NC2=NC3(CCCC3)N=C(N)N2)cc1  > 79.4 µM (not active)
5  O=C(c1cnc(-c2ccc(Cl)cc2)s1)c1ccc(Cl)cc1Cl    18.7 µM (not active)

QUERY: Read the entry Cc1cc(C)n(-c2nc(SCC(=O)Nc3nccs3)c3c4c(sc3n2)COC(C)(C)C4)n1 and write its reported EC50.
RESULT: > 79.4 µM (not active)
